subject-of-test: UniProtKB P30556
assay-explanation: Tested for Angiotensin II receptor, type 1 affinity in the presence of 0.25% bovine serum albumin (BSA)
measured-property: IC50

Report IC50 for CCCCc1ncc(/C=C(\Cc2cccs2)C(=O)O)n1Cc1ccc(C(=O)O)cc1 please. 7.3 nM

###

subject-of-test: Type-1 angiotensin II receptor (Homo sapiens, UniProt P30556)
assay-explanation: Tested for Angiotensin II receptor, type 1 affinity in the presence of 0.25% BSA
measured-property: pIC50
Hey, just a heads up that pIC50 is the negative log base 10 of the concentration in molar.

May I ask what pIC50 has been recorded for CCCCc1ncc(/C=C(\Cc2cccs2)C(=O)O)n1Cc1ccc(C(=O)O)c2ccccc12 ? 7.51

###

subject-of-test: Type-1 angiotensin II receptor (Homo sapiens, UniProt P30556)
assay-explanation: Tested for Angiotensin II receptor, type 1 affinity in the absence of bovine serum albumin (BSA)
measured-property: pIC50
Remember the convention: pIC50 equals -log10 of concentration in molar.

Can you look up the measured pIC50 of CCCCc1ncc(/C=C(\Cc2cccs2)C(=O)O)n1Cc1ccc(C(=O)O)cc1 for me? 8.70

###

Exercise: state measured ED50 for each of the compounds provided.
Tested on: Rattus norvegicus
assay-explanation: Tested for the dose that produced a 50% inhibition of the pressor response to AII in conscious normotensive rats administered intravenously
Type: functional
experimental-context: iv, read-out: ID50 (the source's name)
Just the number please, in mg/kg, no unit attached.

# lookup: ED50 of CCCCc1ncc(/C=C(\Cc2cccs2)C(=O)O)n1Cc1ccc(C(=O)O)cc1Cl 0.06

Then what about the compound CCCCc1ncc(/C=C(\Cc2cccs2)C(=O)O)n1Cc1ccc(C(=O)O)cc1 [EPROSARTAN] ? 0.08

Same question, CCCCc1ncc(/C=C(\Cc2cccs2)C(=O)O)n1Cc1cc(Cl)c(C(=O)O)cc1Cl this time 0.68

CCCCc1ncc(/C=C(\Cc2cccs2)C(=O)O)n1Cc1ccc(C(=O)O)c(Cl)c1 ? 0.12

// same read-out, input: CCCCc1ncc(/C=C(\Cc2cccs2)C(=O)O)n1Cc1ccc(C(=O)O)c(Cl)c1Cl 0.04

Ok, now CCCCc1ncc(/C=C(\Cc2cccs2)C(=O)O)n1Cc1ccc(C(=O)O)c2ccccc12 0.05

###

subject-of-test: Type-1 angiotensin II receptor (Homo sapiens)
Sequence (P30556 whole entry): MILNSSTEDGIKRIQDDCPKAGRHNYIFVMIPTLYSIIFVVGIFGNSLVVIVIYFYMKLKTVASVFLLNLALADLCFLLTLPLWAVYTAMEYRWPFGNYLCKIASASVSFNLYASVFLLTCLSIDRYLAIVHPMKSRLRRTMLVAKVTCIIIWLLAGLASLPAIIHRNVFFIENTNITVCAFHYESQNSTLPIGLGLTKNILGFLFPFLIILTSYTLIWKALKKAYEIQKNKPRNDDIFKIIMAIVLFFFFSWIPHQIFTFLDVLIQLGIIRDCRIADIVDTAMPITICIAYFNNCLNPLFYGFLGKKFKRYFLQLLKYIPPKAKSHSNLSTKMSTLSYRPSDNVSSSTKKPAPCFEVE
assay-explanation: Tested for binding affinity to Angiotensin II receptor, type 1
Would you kindly list IC50 for each of these molecules?
Your answer should be a plain number; it is taken to be in nM.

What does the record list as IC50 for CCCCc1ncc(/C=C(\Cc2cccs2)C(=O)O)n1Cc1ccccc1Cl ? 4530

Then CCCCc1ncc(/C=C(\Cc2cccs2)C(=O)O)n1Cc1ccccc1 ? 440
